Values were extracted from ChEMBL document CHEMBL3351308.

- Assay Target: G protein-coupled receptor (Human betaherpesvirus 5)
- Assay Info: Allosteric modulatory activity at FLAG-tagged human cytomegalovirus US28 receptor delta300 mutant expressed in HEK293T cells by PathDetectElk1 assay
- Assay type: cell-based
- Setup Conditions: hek-293t
Property Measured: pEC50
API doc: respond with a numeric literal and nothing else, no unit.

INSERT INTO measurements (molecule, property_measured, value) VALUES
  ('CC1(COC(=O)Cc2ccccc2)Cc2ccccc2CN1C(=O)Cc1ccccc1 (stereo unspecified)', 'pEC50', 5.59),
  ('CSc1ccc2c(c1)C(N1CCN(C)CC1)Cc1ccccc1S2 (stereo unspecified) [METITEPINE]', 'pEC50', 6.48);

Reported pEC50 of CC1(CCO)Cc2ccccc2C(=O)N1c1ccccc1 (stereo unspecified) : 5.51

Reported pEC50 of CC1(CO)Cc2ccccc2C(=O)N1c1ccccc1 (stereo unspecified) : 6.03

* * *

- Assay Target: G-protein coupled receptor homolog US28 (Human cytomegalovirus (strain AD169) (HHV-5) (Human herpesvirus 5), UniProt P69332)
- Sequence (P69332 whole entry): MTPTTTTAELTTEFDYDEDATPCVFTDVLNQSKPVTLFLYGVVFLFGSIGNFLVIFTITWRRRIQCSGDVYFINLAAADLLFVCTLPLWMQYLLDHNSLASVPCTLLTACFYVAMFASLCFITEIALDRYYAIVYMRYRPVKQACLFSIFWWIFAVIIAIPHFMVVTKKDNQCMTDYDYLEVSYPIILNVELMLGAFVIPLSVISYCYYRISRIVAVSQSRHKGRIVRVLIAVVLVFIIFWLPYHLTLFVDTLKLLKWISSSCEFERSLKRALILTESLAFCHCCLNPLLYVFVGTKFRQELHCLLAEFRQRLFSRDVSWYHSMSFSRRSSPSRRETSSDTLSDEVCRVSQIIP
- Assay Info: Allosteric modulatory activity at FLAG-tagged wild type human cytomegalovirus US28 receptor expressed in HEK293T cells by PathDetectElk1 assay
Recorded pEC50, one value per entry.
In plain terms, pEC50 is the concentration in mol/L turned into minus its base-10 logarithm.

INSERT INTO measurements (compound, value) VALUES
  ('CC1(COC(=O)Cc2ccccc2)Cc2ccccc2CN1C(=O)Cc1ccccc1 (stereo unspecified)', 5.47),
  ('CC1(CCO)Cc2ccccc2C(=O)N1c1ccccc1 (stereo unspecified)', 6.00),
  ('CSc1ccc2c(c1)C(N1CCN(C)CC1)Cc1ccccc1S2 (stereo unspecified) [METITEPINE]', 6.46),
  ('CC1(CO)Cc2ccccc2C(=O)N1c1ccccc1 (stereo unspecified)', 5.36),
  ('N#CC(CCCN1CCC(O)(c2ccc(Cl)cc2)CC1)(c1ccccc1)c1ccccc1', 5.35);

# ---- query compound ----
Reported pEC50 of CCCCCCCCCC(=O)N(CCN(C)C)CC1(C)Cc2ccccc2C(=O)N1 (stereo unspecified) : 5.82

* * *

- Assay Target: G protein-coupled receptor (Human betaherpesvirus 5, UniProt Q9IP65)
- Sequence (Q9IP65 1-354): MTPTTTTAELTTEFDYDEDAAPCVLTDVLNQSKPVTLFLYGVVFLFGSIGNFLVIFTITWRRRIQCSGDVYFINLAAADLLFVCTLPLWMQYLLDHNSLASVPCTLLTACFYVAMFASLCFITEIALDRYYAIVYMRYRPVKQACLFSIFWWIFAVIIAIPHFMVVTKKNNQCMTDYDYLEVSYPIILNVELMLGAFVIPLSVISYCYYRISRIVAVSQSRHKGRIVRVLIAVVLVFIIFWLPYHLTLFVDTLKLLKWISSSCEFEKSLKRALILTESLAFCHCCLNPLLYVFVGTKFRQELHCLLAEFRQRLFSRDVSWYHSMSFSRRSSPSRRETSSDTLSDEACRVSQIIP
- Assay Info: Allosteric modulatory activity at FLAG-tagged human cytomegalovirus US28 receptor delta300 mutant expressed in HEK293T cells by PathDetectElk1 assay
- Setup Conditions: hek-293t
Property Measured: EC50 (µM)
Just the number in µM, nothing appended.

Solved entries:
INSERT INTO results (compound, assay_target, unit_of_measure, value) VALUES
  ('CC1(CO)Cc2ccccc2C(=O)N1c1ccccc1 (stereo unspecified)', 'G protein-coupled receptor (Human betaherpesvirus 5, UniProt Q9IP65)', 'µM', 0.93),
  ('CC1(COC(=O)Cc2ccccc2)Cc2ccccc2CN1C(=O)Cc1ccccc1 (stereo unspecified)', 'G protein-coupled receptor (Human betaherpesvirus 5, UniProt Q9IP65)', 'µM', 2.5),
  ('CSc1ccc2c(c1)C(N1CCN(C)CC1)Cc1ccccc1S2 (stereo unspecified) [METITEPINE]', 'G protein-coupled receptor (Human betaherpesvirus 5, UniProt Q9IP65)', 'µM', 0.33);

# ---- query compound ----
Hey, G protein-coupled receptor (Human betaherpesvirus 5, UniProt Q9IP65) data for CC1(CCO)Cc2ccccc2C(=O)N1c1ccccc1 (stereo unspecified) : EC50 came out at 3.1

* * *

- Assay Target: G-protein coupled receptor homolog US28 (Human cytomegalovirus (strain AD169) (HHV-5) (Human herpesvirus 5))
- Assay Info: Allosteric modulatory activity at FLAG-tagged wild type human cytomegalovirus US28 receptor expressed in HEK293T cells by PathDetectElk1 assay relative to basal level
- Assay type: cell-based
- Set-up: concentration or dose not given beside the values
- Setup Conditions: Human betaherpesvirus 5; HEK-293T
Recorded Efficacy, one value per entry.
Just the number in %, nothing appended.

Reported Efficacy of "N#CC(CCCN1CCC(O)(c2ccc(Cl)cc2)CC1)(c1ccccc1)c1ccccc1" : -22

Reported Efficacy of CC1(COC(=O)Cc2ccccc2)Cc2ccccc2CN1C(=O)Cc1ccccc1 (stereo unspecified) : -37

Reported Efficacy of CC1(CO)Cc2ccccc2C(=O)N1c1ccccc1 (stereo unspecified) : 41

Reported Efficacy of CC1(CCO)Cc2ccccc2C(=O)N1c1ccccc1 (stereo unspecified) : -14

Reported Efficacy of CCCCCCCCCC(=O)N(CCN(C)C)CC1(C)Cc2ccccc2C(=O)N1 (stereo unspecified) : -20

Reported Efficacy of CSc1ccc2c(c1)C(N1CCN(C)CC1)Cc1ccccc1S2 (stereo unspecified) [METITEPINE] : 10
